Target: NA reuptake (Rattus norvegicus, UniProt Q63380)
Construct: isolated from the hypothalamus of male rat brains; from tissue; host or cells: rat brain synaptosomes (P2 fraction), hypothalamus of male rats
Sequence (Q63380 1-617): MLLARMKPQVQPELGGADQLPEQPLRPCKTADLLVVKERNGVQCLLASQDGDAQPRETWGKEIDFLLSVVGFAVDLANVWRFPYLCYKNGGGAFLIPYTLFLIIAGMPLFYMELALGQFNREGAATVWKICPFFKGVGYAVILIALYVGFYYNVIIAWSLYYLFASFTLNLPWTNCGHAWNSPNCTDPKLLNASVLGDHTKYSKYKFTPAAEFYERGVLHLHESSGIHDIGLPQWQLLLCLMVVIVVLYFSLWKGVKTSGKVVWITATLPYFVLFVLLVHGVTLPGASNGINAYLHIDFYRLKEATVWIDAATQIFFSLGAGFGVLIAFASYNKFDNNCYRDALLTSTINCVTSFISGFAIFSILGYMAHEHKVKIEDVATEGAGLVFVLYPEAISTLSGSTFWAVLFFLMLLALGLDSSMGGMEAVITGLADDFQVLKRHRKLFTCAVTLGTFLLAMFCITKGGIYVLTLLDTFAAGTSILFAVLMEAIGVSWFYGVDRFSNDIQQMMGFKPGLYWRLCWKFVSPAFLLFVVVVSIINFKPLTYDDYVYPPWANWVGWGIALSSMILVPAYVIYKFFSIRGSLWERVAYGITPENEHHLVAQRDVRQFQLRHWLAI
Assay: Inhibition of NA reuptake in rat brain synaptosomes (hypothalamus, P2 fraction)
Format: biochemical
Conditions: 10 μmol./l
EXPERIMENTAL_READOUT: inhibition at 10 µM (%)
Reply numerically in %, unit not repeated.

The reported inhibition at 10 µM value, NA reuptake (Rattus norvegicus, UniProt Q63380), for CN(C)CC1CSc2ccccc2C1(O)c1cccnc1 (stereo not shown) [Example 31] reads 48

Query CN(C)CC1=C(c2cccnc2)c2ccc(OC(F)(F)F)cc2C1 [Example 21] on NA reuptake (Rattus norvegicus, UniProt Q63380); inhibition at 10 µM returned: 14

Measured inhibition at 10 µM (NA reuptake (Rattus norvegicus, UniProt Q63380)), entry CN(C)CC1=C(c2cccnc2)c2cccc(O)c2CC1 [Example 39] : 50

Hey, NA reuptake (Rattus norvegicus, UniProt Q63380) data for CN(C)CC1=C(c2cccnc2)c2ccc(F)cc2C1 [Example 19] : inhibition at 10 µM came out at 31

Value (inhibition at 10 µM, NA reuptake (Rattus norvegicus, UniProt Q63380)) for record CN(C)CC1=C(c2cccnc2)c2ccc(C(F)(F)F)cc2C1 [Example 23] = 6

====

Biological target: human μ-opiate receptor (Homo sapiens)
Construct: purchased Perkin Elmer, Zaventem, Belgium RB-HOM; host or cells: CHO-K1 cells
Assay: Affinity for the human μ-opiate receptor, [3H]-naloxone displacement (SPA) on CHO-K1 receptor membrane preparation
Assay type: binding
Settings: Cheng-Prusoff from IC50; [3H]-naloxone 1 nmol./l; read-out: μ-Opioid receptor affinity, Ki
Reported pKi by item:
# log scale: pKi equals minus log10 of the concentration in mol/L

Example cases with answers are listed next.
COc1cccc2c1CCC(CN(C)C)=C2c1cccnc1 : 6.34
CN(C)CC1=C(c2cccnc2)c2ccc(O)cc2C1 : 6.42
CN(C)CC1=C(c2cccnc2)c2ccccc2SCC1 : 6.49
CN(C)CC1=C(c2cccnc2)c2ccccc2[S+]([O-])CC1 (stereo not drawn) : 6.68
CN(C)CC1=C(c2cccnc2)c2ccccc2CCC1 : 6.42

The value of pKi measured for the compound CN(C)CC1=C(c2cccnc2)c2ccccc2CC1 turned out to be 6.25

====

List of inhibition at 10 µM values.
Molecular target: NA reuptake (Rattus norvegicus, UniProt Q63380)
Construct: isolated from the hypothalamus of male rat brains; from tissue; host or cells: rat brain synaptosomes (P2 fraction), hypothalamus of male rats
Test: Inhibition of NA reuptake in rat brain synaptosomes (hypothalamus, P2 fraction)
Assay type: biochemical
Conditions: 10 μmol./l

Below: 6 compounds and their reported inhibition at 10 µM.
CN(C)CC1=C(c2cccnc2)c2ccccc2OCC1 : 9%
CN(C)CC1Cc2ccccc2C1c1cccnc1 (stereo not shown) : 46%
CN(C)CC1CCS(=O)(=O)c2ccccc2C1(O)c1cccnc1 (stereo not shown) : 19%
COc1cccc2c1CCC(CN(C)C)=C2c1cccnc1 : 34%
CN(C)CC1Cc2cc(F)ccc2C1(O)c1cccnc1 (stereo not shown) : 29%
CN(C)CC1=C(c2cccnc2)c2ccccc2C1 : 30%

Log: NA reuptake (Rattus norvegicus, UniProt Q63380), compound CN(C)CC1=C(c2cccnc2)c2ccccc2[S+]([O-])CC1 (stereo not shown) , inhibition at 10 µM = -2%

Result for CN(C)CC1CCOc2ccccc2C1(O)c1cccnc1 (stereo not shown) , tested on NA reuptake (Rattus norvegicus, UniProt Q63380), inhibition at 10 µM: 9%

The recorded inhibition at 10 µM with NA reuptake (Rattus norvegicus, UniProt Q63380) for CN(C)CC1Cc2ccccc2C1(O)c1cccnc1 (single isomer, unassigned) was 33%

Summary: CN(C)CC1Cc2cc(OC(F)(F)F)ccc2C1(O)c1cccnc1 (stereo not shown) , NA reuptake (Rattus norvegicus, UniProt Q63380), inhibition at 10 µM = 38%

====

Molecular target: 5-HT reuptake (Rattus norvegicus, UniProt P31652)
Sequence (P31652 whole entry): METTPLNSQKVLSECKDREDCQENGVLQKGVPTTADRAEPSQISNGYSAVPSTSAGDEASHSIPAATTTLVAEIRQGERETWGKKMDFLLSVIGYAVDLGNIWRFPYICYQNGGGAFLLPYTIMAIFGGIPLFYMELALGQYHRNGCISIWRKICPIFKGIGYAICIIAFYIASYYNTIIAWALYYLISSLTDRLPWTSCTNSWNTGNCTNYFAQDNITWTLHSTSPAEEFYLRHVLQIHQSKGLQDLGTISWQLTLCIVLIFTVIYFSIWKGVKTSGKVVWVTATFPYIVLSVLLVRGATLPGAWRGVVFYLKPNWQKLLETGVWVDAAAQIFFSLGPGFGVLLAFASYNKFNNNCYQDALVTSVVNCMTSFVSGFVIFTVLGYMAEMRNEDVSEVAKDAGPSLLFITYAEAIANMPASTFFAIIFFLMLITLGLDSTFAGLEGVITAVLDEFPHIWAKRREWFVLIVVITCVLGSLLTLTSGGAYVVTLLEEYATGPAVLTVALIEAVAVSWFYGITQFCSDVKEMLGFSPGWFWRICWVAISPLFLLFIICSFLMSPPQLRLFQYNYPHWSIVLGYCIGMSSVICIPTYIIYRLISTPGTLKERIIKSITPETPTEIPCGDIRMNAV
Test: biochemical
EXPERIMENTAL_READOUT: Ki (nM)
Report as a plain number; the unit nM is understood.

Example compounds with recorded Ki:
CN(C)CC1CCCc2ccccc2C1(O)c1cccnc1 (stereo not drawn) [Example 11] : 28
CN(C)CC1=C(c2cccnc2)c2ccc(O)cc2C1 [Example 7] : 25

Now take the following compound into account.
# Ki of CN(C)CC1=C(c2cccnc2)c2cccc(O)c2CC1 [Example 39] = 250

====

Target: 5-HT reuptake (Rattus norvegicus)
Test: biochemical
Conditions: read-out: Inhibition of 5-HT reuptake (% inhibition at 10 μmol./l), 10 μmol./l; rat synaptosomes
EXPERIMENTAL_READOUT: inhibition at 10 µM (%)
Could you give me the number in %? Just the number is fine.

In the examples that follow, each entry is paired with its recorded inhibition at 10 µM.
CN(C)CC1Cc2ccccc2C1c1cccnc1 (stereo not shown) [Example 4] : 86
CN(C)CC1CCSc2ccccc2C1(O)c1cccnc1 (stereo not shown) [Example 13] : 41
COc1cccc2c1CCC(CN(C)C)C2(O)c1cccnc1 (stereo not shown) [Example 36] : 33

--- query ---
Looking up CN(C)CC1CCOc2ccccc2C1(O)c1cccnc1 (stereo not shown) [Example 24] , I found its inhibition at 10 µM recorded as 12

====

Biological target: human μ-opiate receptor (Homo sapiens, UniProt P35372)
Construct: purchased Perkin Elmer, Zaventem, Belgium RB-HOM; host or cells: CHO-K1 cells
Sequence (P35372 whole entry): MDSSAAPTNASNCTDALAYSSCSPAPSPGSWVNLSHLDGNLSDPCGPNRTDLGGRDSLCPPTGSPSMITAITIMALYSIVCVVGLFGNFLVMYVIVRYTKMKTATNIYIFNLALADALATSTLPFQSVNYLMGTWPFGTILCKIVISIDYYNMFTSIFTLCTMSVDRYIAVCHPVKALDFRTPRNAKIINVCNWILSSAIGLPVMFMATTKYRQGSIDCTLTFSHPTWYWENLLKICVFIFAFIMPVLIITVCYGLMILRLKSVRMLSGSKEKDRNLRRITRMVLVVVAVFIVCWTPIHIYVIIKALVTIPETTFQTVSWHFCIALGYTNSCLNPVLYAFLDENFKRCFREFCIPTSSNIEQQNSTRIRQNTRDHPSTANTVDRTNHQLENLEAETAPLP
Test: Affinity for the human μ-opiate receptor, [3H]-naloxone displacement (SPA) on CHO-K1 receptor membrane preparation
Assay type: binding
Below, each entry is listed alongside its reported Ki.
Write the value in µM as a bare number.

Some compounds with recorded Ki:
CN(C)CC1=C(c2cccnc2)c2ccccc2C1 : 0.24
CN(C)CC1=C(c2cccnc2)c2cccc(O)c2CC1 : 0.02
COc1ccc2c(c1)CC(CN(C)C)=C2c1cccnc1 : 0.15

Then this compound:
Entry under test: CN(C)CC1=C(c2cccnc2)c2ccc(F)cc2C1 . Its Ki was 0.29

====

Target: 5-HT reuptake (Rattus norvegicus, UniProt P31652)
Experiment: biochemical
Conditions: 10 μmol./l; rat synaptosomes
EXPERIMENTAL_READOUT: Inhibition of 5-HT reuptake (% inhibition at 10 μmol./l) (%)
Respond with the bare value in %.

For orientation, consider the following solved cases.
CN(C)CC1Cc2ccccc2C1(O)c1cccnc1 (single isomer, unassigned) [Example 2] : 89
CN(C)CC1Cc2ccccc2C1(O)c1cccnc1 (single isomer, unassigned) [Example 1] : 63
CN(C)CC1CCSc2ccccc2C1(O)c1cccnc1 (stereo not shown) [Example 14] : 44

From here, focus on the item given below.
Looking up COc1cccc2c1CCC(CN(C)C)C2(O)c1cccnc1 (stereo not shown) [Example 37] , I see its Inhibition of 5-HT reuptake (% inhibition at 10 μmol./l) listed as 19

====

Target: 5-HT reuptake (Rattus norvegicus)
Assay: biochemical
Conditions: rat synaptosomes; Cheng-Prusoff
EXPERIMENTAL_READOUT: pKi
Remember, pKi is on a log scale: it is -log10 of the molar concentration.

CN(C)CC1=C(c2cccnc2)c2ccccc2CCC1 : 6.92
CN(C)CC1=C(c2cccnc2)c2ccc(F)cc2C1 : 7.37
COc1cccc2c1CCC(CN(C)C)=C2c1cccnc1 : 6.43
CN(C)CC1=C(c2cccnc2)c2ccccc2C1 : 7.89

The recorded pKi with 5-HT reuptake (Rattus norvegicus) for CN(C)CC1=C(c2cccnc2)c2ccc(OC(F)(F)F)cc2C1 was 6.37

Reported pKi (5-HT reuptake (Rattus norvegicus)) for entry COc1ccc2c(c1)CC(CN(C)C)C2(O)c1cccnc1 (stereo not shown) is 6.77

Measured on 5-HT reuptake (Rattus norvegicus), COc1ccc2c(c1)CC(CN(C)C)=C2c1cccnc1 has a documented pKi of 7.55

====

Recorded inhibition at 10 µM for the following molecules
Target: 5-HT reuptake (Rattus norvegicus)
Test: biochemical
Settings: read-out: Inhibition of 5-HT reuptake (% inhibition at 10 μmol./l), 10 μmol./l; rat synaptosomes
Express your answer in %, writing the number without its unit.

CN(C)CC1Cc2cc(OC(F)(F)F)ccc2C1(O)c1cccnc1 (centres unmarked) : 71

5-HT reuptake (Rattus norvegicus) data for CN(C)CC1CSc2ccccc2C1(O)c1cccnc1 (centres unmarked) ; its inhibition at 10 µM: -4

====

In this section, each of the compounds is paired with its reported μ-Opioid receptor affinity (% inhibition at 1 μmol./l).
Molecular target: human μ-opiate receptor (Homo sapiens, UniProt P35372)
Construct: purchased Perkin Elmer, Zaventem, Belgium RB-HOM; host or cells: CHO-K1 cells
Assay: Affinity for the human μ-opiate receptor, [3H]-naloxone displacement (SPA) on CHO-K1 receptor membrane preparation
Assay type: binding
Conditions: 1 μmol./l test substance; inhibition of specific [3H]-naloxone binding
The reply should contain only the number, in %.

For reference, reported μ-Opioid receptor affinity (% inhibition at 1 μmol./l) for CN(C)CC1CCSc2ccccc2C1(O)c1cccnc1 (stereo not drawn) [Example 14] stands at −14

μ-Opioid receptor affinity (% inhibition at 1 μmol./l) in this record for COc1cccc2c1CCC(CN(C)C)C2(O)c1cccnc1 (stereo not drawn) [Example 37] : 8

Value of μ-Opioid receptor affinity (% inhibition at 1 μmol./l) reported for the compound CN(C)CC1Cc2ccccc2C1(O)c1cccnc1 (single isomer, unassigned) [Example 2] is 60

Reference source: patent US8278338B2
